# ASSAY_CONDITIONS: buffer; pH 7.4; 200.0 µM
PARAMETER_MEASURED: log10(solubility kinetic) (log10 of the value in µg/mL)
For clarity, the numbers are log10 values of solubility kinetic expressed in µg/mL.

Worked set:
CC(=O)c1cccn1S(=O)(=O)c1ccccc1 :: 1.57
S=C(NCc1ccco1)N1CCN(c2ccccn2)CC1 :: 1.63
O=C(Nc1ccc(F)cc1F)Nc1sccc1-c1nc2ccccc2s1 :: -0.52
NC(=O)C1CCN(C(=O)c2cc(-c3ccc(Cl)s3)nc3ccccc23)CC1 :: 0.97
CC(=O)Oc1ccccc1C(=O)N(C1CCCCC1)C1CCCCC1 :: 1.65
CCN1CCN(C(=O)CSc2ccc(C)cc2)CC1 :: 1.61
COc1ccc2c(c1)c(C(=O)CN1CCCCC1)c(C)n2C :: 1.65
CCCOc1ccccc1/C=C(\C#N)C(=O)Nc1cccc(C)n1 :: 0.71
C=CCNC(=S)N(Cc1ccccc1)Cc1ccccc1 :: 0.86
CNc1nc(N)c([N+](=O)[O-])c(Nc2ccccc2OC)n1 :: -0.15

# input Name the recorded log10(solubility kinetic) for `O=C(O)c1ccccc1C(=O)Nc1ccc(Oc2cccc(C(F)(F)F)c2)nc1` .
# output 1.78

# input Name the reported log10(solubility kinetic) value associated with the compound `COc1cccc(NC(=O)CNC(=O)c2ccc([N+](=O)[O-])cc2)c1`
# output 0.46

# input If you can, please state the reported log10(solubility kinetic) value of `CSCCn1c(C(C)(C)C)cc(C(=O)O)c1C` .
# output 1.50

# input For the compound `Cc1nc(NCc2ccccc2)sc1C(=O)Nc1ccccc1` , what log10(solubility kinetic) is on record?
# output -0.10

# input Look up log10(solubility kinetic): `Cc1cc(-c2onc3ccc(Cl)cc23)ccc1O`
# output 1.21

# input Entry `COc1ccccc1NCC(=O)c1ccc(Cl)cc1` : reported log10(solubility kinetic) = ?
# output 0.67

# input Item `CC(C)NC(=O)CSc1ncccc1-c1nc2ccccc2[nH]1` has what recorded log10(solubility kinetic)?
# output 1.67

# input Please look up its log10(solubility kinetic): `CCN1CCN(c2oc(-c3ccco3)nc2C#N)CC1`
# output 1.56

# input Name the reported log10(solubility kinetic) value associated with the compound CC1CN(C(=S)Nc2cccc(F)c2)CC(C)O1 (stereo unspecified)
# output 1.60

# input Requested field: log10(solubility kinetic). Item: Cc1ccc(NC(=O)CC2SCCNC2=O)cc1[N+](=O)[O-] (stereo unspecified)
# output 1.56

# input Please look up its log10(solubility kinetic): CC(CN1C(C)CCCC1C)OC(=O)c1ccc(F)cc1.Cl (stereo unspecified)
# output 1.67

# input // returns reported log10(solubility kinetic) for input `CCC(=O)N/C(=N/c1nc(C)cc(C)n1)Nc1ccc(C)cc1`
# output 0.23

# input log10(solubility kinetic) for `O=C(Nc1cccc(NC(=O)c2ccco2)n1)c1ccco1` ?
# output 0.79

# input Returns the measured log10(solubility kinetic) for the input compound. Input: `N/C(=N\OC(=O)C12CC3CC(CC(C3)C1)C2)c1ccncc1`
# output 1.23
